- Tested on: Enterococcus faecium ATCC 700221
- MEASUREMENT CONTEXT: ATCC 700221, 24 h
Where a SMILES comes first, the peptide text is derived from it. Bridges are numbered along the chain shown (N, C = ends). Roman numbers before positions name the chains, in order. Side-chain parts run from the residue outwards. The star is where a group is joined. Decanoyl = CCCCCCCCCC(=O)*; Octanoyl = CCCCCCCC(=O)*
VALUE TYPE: MIC Enterococcus faecium ATCC 700221 (µg/mL)
Only the number, expressed in µg/mL, is required.

| COMPOUND | UNIT TAG | MIC Enterococcus faecium ATCC 700221 |
| --- | --- | --- |
| CCCCCCCCCC(=O)N[C@@H](CCCNC(=N)N)C(=O)N[C@@H](CCCNC(=N)N)C(=O)N[C@@H](CSSC[C@H](NC(=O)[C@H](CCCNC(=N)N)NC(=O)[C@H](CCCNC(=N)N)NC(=O)CCCCCCCCC)C(N)=O)C(N)=O [Compound C2] (I: Decanoyl-Arg-Arg-Cys-NH2 / II: Decanoyl-Arg-Arg-Cys-NH2; disulfide I:3-II:3) | µg/mL | 2 |

Inquiry: Answer with reported MIC Enterococcus faecium ATCC 700221 of CCCCCCCC(=O)N[C@@H](Cc1ccccc1)C(=O)N[C@@H](CCCNC(=N)N)C(=O)N[C@@H](CCCNC(=N)N)C(=O)NCCCC[C@H](NC(=O)[C@H](CCCNC(=N)N)NC(=O)[C@H](CCCNC(=N)N)NC(=O)[C@H](Cc1ccccc1)NC(=O)CCCCCCC)C(N)=O [Compound B5] (Octanoyl-FRRK([Arg-Arg-Phe-Octanoyl])-NH2)
Reply text: 4
